# study target: T1, human Claudin 18.2 (hCLDN18.2) (human, UniProt P56856-2 1-261)
# T1 construct: whole, on cells; also called CLDN18A2; claudin 18 splice variant 2
# run description: FACS, PDX-hCLDN18.2 gastric cancer tumor tissue-derived cells
measured metric: Mean maximum fluorescence intensity (Top MFI)
Reply numerically in MFI, unit not repeated.

Let me know recorded Mean maximum fluorescence intensity (Top MFI) for hu299B2-S32A-1 (antibody, V domains shown, also called humanized antibody hu299B2-S32A) VH: QVQLVQSGAEVKKPGASVKVSCKASGYIFTNYWIHWVRQAPGQGLEWMGRIYPGTGNTYYNEKFTGRVTMTRDTSTSTVYMELSSLRSEDTAVYYCAREGYGKGNSMDYWGQGTTVTVSS VL: DIVMTQSPDSLAVSLGERATINCKSSQSLLNAGNQKNYLTWYQQKPGQPPKLLIYWASTRESGVPDRFSGSGSGTDFTLTISSLQAEDVAVYYCQNAYYYPYTFGGGTKLEIK , thanks. 25200

Give Mean maximum fluorescence intensity (Top MFI) for hu299B2-S32A-4 (antibody, V domains shown, also called humanized antibody hu299B2-S32A) VH: QVQLVQSGAEVKKPGASVKVSCKTSGYIFTNYWIHWVRQAPGQGLEWMGRIYPGTGNTYYNEKFTGRVTLTADTSTSTVYMELSSLRSEDTAVYYCSREGYGKGNSMDYWGQGTTVTVSS VL: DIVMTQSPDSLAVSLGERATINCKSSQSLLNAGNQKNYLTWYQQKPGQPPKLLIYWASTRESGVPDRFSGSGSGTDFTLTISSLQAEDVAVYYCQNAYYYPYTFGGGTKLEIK 23000

Return Mean maximum fluorescence intensity (Top MFI) for the following binder: hu299B2-S32A-3 (antibody, V domains shown, also called humanized antibody hu299B2-S32A) VH: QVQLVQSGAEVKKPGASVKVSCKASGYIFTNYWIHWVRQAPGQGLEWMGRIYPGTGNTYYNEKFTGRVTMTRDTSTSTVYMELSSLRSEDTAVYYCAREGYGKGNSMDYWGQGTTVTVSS VL: DIVMTQSPDSLAVSLGERVTMNCKSSQSLLNAGNQKNYLTWYQQKPGQPPKLLFYWASTRESGVPDRFSGSGSGTDFTLTISSVQAEDVAVYHCQNAYYYPYTFGGGTKLEIK 24300

Return value of Mean maximum fluorescence intensity (Top MFI) for input hu299B2-S32A-2 (antibody, V domains shown, also called humanized antibody hu299B2-S32A) VH: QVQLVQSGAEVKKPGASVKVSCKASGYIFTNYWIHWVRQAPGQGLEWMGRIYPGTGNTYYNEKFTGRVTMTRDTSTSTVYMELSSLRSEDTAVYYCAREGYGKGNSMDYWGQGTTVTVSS VL: DIVMTQSPDSLAVSLGERATMNCKSSQSLLNAGNQKNYLTWYQQKPGQPPKLLFYWASTRESGVPDRFSGSGSGTDFTLTISSLQAEDVAVYHCQNAYYYPYTFGGGTKLEIK , no commentary. 22900
